Below are molecules with their pKi as measured on Carbonic anhydrase 1 (Homo sapiens, UniProt P00915).
Sequence (P00915 whole entry): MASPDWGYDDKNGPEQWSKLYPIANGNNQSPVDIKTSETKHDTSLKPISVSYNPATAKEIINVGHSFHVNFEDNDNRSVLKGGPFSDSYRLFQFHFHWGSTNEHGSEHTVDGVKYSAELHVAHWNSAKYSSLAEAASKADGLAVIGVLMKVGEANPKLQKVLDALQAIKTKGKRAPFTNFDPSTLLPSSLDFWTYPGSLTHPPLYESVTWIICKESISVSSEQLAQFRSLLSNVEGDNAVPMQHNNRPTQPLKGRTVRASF
One number for each entry, as −log10 of the molar value.

Batch of 2 molecules: report pKi for each.
1. NS(=O)(=O)c1nnc(-c2ccccc2Cl)s1
2. NNc1ccc(S(N)(=O)=O)cc1

1: 6.16; 2: 4.55

---

Below are compounds with their pKi as measured on Carbonic anhydrase 7 (Homo sapiens).
Sequence (P43166 whole entry): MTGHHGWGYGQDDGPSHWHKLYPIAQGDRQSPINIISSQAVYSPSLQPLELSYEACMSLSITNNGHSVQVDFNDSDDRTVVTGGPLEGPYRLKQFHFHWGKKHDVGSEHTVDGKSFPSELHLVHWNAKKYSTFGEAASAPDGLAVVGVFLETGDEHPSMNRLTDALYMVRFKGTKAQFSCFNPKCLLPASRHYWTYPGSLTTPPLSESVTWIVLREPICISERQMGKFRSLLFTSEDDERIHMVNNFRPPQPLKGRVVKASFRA
Numbers only, as −log10 of the molar value.

Take a look at these entries with their results.
compound=Nc1nnc(S(N)(=O)=O)s1 number=8.28
compound=Nc1ccc(S(N)(=O)=O)cc1Br number=7.21
compound="Cc1ccc(S(N)(=O)=O)cc1 [P-TOLUENESULFONAMIDE]" number=7.06
compound=Nc1ccc(S(N)(=O)=O)cc1I number=6.82
compound=NS(=O)(=O)c1nnc(-c2ccccc2Cl)s1 number=8.27
compound="Nc1ccc(S(N)(=O)=O)cc1 [SULFANILAMIDE]" number=7.15
compound=NS(=O)(=O)c1nc2ccccc2s1 number=8.40
compound=NS(=O)(=O)c1ccc(CO)cc1 number=7.22

Batch of 2 compounds: report pKi for each.
1. NS(=O)(=O)c1ccc(C(=O)O)cc1 [CARZENIDE]
2. NNc1ccc(S(N)(=O)=O)cc1

[7.28, 7.05]

Batch of 4 compounds: report pKi for each.
1. NNc1ccccc1S(N)(=O)=O
2. NCc1ccc(S(N)(=O)=O)cc1 [MAFENIDE]
3. Nc1ccccc1S(N)(=O)=O
4. Nc1ccc(S(=O)(=O)NCc2ccc(S(N)(=O)=O)cc2)cc1

1: 7.17; 2: 7.12; 3: 7.35; 4: 8.25
